molecular target: Protein farnesyltransferase (Homo sapiens, UniProt P49354+P49356); test: Ratio of FTase IC50 values compared to compound 8; type: protein-complex assay
Square brackets hold non-standard residues; d marks the D form. Peptide text beside a SMILES is read from it. NMeM = CN[C@@H](CCSC)C(=O)O; Nle = CCCC[C@H](N)C(=O)O
Measured Property: Ratio
Numbers only.

Below, 4 compounds whose answers are already recorded.
Ask: Which value of Ratio has been reported for CCCC[C@H](NC(=O)[C@H](Cc1ccccc1)NC(=O)[C@@H](NC(=O)[C@@H](N)CS)C(C)C)C(=O)O (H-CVF[Nle]-OH) in the records?
Reply: 26

Ask: Try the compound CSCC[C@H](/N=C(\S)[C@H](Cc1ccccc1)NC(=O)[C@@H](NC(=O)[C@@H](N)CS)C(C)C)C(=O)O
Reply: 0.5

Ask: Try the compound COC(=O)[C@H](CCSC)NC(=O)[C@H](Cc1ccccc1)NC(=O)[C@@H](NC(=O)[C@@H](N)CS)C(C)C (H-CVFM-OMe)
Reply: 92

Ask: Try the compound CSCC[C@H](NC[C@H](Cc1ccccc1)NC(=O)[C@@H](NC(=O)[C@@H](N)CS)C(C)C)C(=O)O
Reply: 60

Please find the next compound below.
Ask: Which value of Ratio has been reported for CSCC[C@@H](C(=O)O)N(C)C(=O)[C@H](Cc1ccccc1)NC(=O)[C@@H](NC(=O)[C@@H](N)CS)C(C)C (H-CVF[NMeM]-OH) in the records?
Reply: 38
